# target.entity: CIB1 and αIIb interaction (CIB1-GST : F-αIIb peptide) (Homo sapiens)
# Construct: made in house; host or cells: BL-21 plus RIL cells (E. coli)
# protocol.details: FP assay, 1536-well qHTS format (primary and confirmatory screen)
# Type: binding
# condition.summary: confirmatory screen; read-out: IC50 [μM] (confirmatory screen)
value.type: IC50 (µM)

compound | unit.string | number
Cc1ccc(C)n1-c1sccc1C(=O)O | µM | 22.4
C=C1C(=O)[C@@]23C(CC[C@@H]1[C@H]2O)[C@@]12CO[C@]3(O)[C@@H](O)[C@@H]1C(C)(C)CC[C@@H]2O (some centres unmarked) | µM | 25.1
CN(C)c1ccc(NC(=S)N/N=C2\C(=O)Nc3ccccc32)cc1.O=C(O)C(F)(F)F | µM | 10
O=C1C[C@@](c2ccc(N3CCOCC3)cc2)(c2ccsc2)NC(=O)C1Sc1ccccc1Cl (some centres unmarked) | µM | 20
Oc1ccc2c(-c3c(-c4ccccn4)nn4c3CCC4)ccnc2c1 | µM | 39.8
CCOC(=O)c1nn(-c2ccc(OC)cc2)c(=O)c2c(N)scc12 | µM | 70.8
COc1cc(Nc2c(C#N)cnc3cc(OCCCN4CCN(C)CC4)c(OC)cc23)c(Cl)cc1Cl | µM | 44.7
O=C(NC1=CC(=O)c2ccccc2C1=O)c1ccccc1.O=C(O)C(F)(F)F | µM | 11.2

====

# target.entity: CIB1 and αIIb interaction (CIB1-GST : F-αIIb peptide) (Homo sapiens)
# Construct: made in house; host or cells: BL-21 plus RIL cells (E. coli)
# protocol.details: FP assay, 1536-well qHTS format (primary and confirmatory screen)
# Format: binding
# condition.summary: qHTS primary screen hits, Table S2; negative sign = inhibitory curve

molecule | Curve Class
COc1ccc2c(c1)c(CC(=O)O)c(C)n2Cc1ccc(Cl)cc1 [NCGC00015217-05] | -2.2
Cc1ccc(C(=O)NC(c2ccco2)c2cc(Cl)c3cccnc3c2O)cc1 (stereo not shown) [NCGC00188372-01] | -1.4
CC1CCCC[C@H]2C(=O)C=C[C@H](O)[C@@H]2CC(=O)O1 (stereo partly shown) [NCGC00169882-02] | -1.2
CNc1nc2c(s1)C(c1ccc(OC)cc1OC)CC(=O)N2.O=C(O)C(F)(F)F (stereo not shown) [NCGC00488262-02] | -2.4
O=C(O)C(F)(F)F.c1ccc(-n2cc(-c3nnc4n3CCCCC4)cn2)cc1 [NCGC00249642-01] | -2.4
O=C(O)C(F)(F)F.O=c1[nH]c2ccccc2n1C1CCN(CCCC(c2ccc(F)cc2)c2ccc(F)cc2)CC1 [NCGC00015802-18] | -3
COc1cccc2c1C(=O)c1c(O)c3c(c(O)c1C2=O)C[C@@](O)(C(=O)CO)CC3OC1CC(N2CCOC(OC)C2)C(O)C(C)O1 (stereo partly shown) [NCGC00319019-01] | -1.4

====

# target.entity: CIB1 and αIIb interaction (CIB1-GST : F-αIIb peptide) (Homo sapiens)
# Construct: made in house; host or cells: BL-21 plus RIL cells (E. coli)
# protocol.details: FP assay, 1536-well qHTS format (primary and confirmatory screen)
# Assay type: binding
# condition.summary: qHTS primary screen hits, Table S2; read-out: IC50
pIC50: −log10 of the molar value.

molecule | pIC50
COc1cc(C=C2C(=O)Nc3ccccc32)cc(OC)c1O [NCGC00343740-01] | 4.35
CCOC(=O)c1[nH]c2c(c1C)C(=S)CC(c1ccco1)C2.O=C(O)C(F)(F)F (stereo not shown) [NCGC00238571-01] | 4.30
O=C(Nc1nc(-c2ccccc2)cs1)c1ccncc1NS(=O)(=O)c1ccc(F)cc1.O=C(O)C(F)(F)F [NCGC00344931-02] | 4.27
CC(=O)Nc1sc2c(c1-c1nc3ccccc3o1)CCN(C(C)C)C2.O=C(O)C(F)(F)F [NCGC00184832-01] | 4.30

====

Measured pIC50 of individual entries
# target.entity: CIB1 and αIIb interaction (CIB1-GST : F-αIIb peptide) (Homo sapiens, UniProt Q99828)
# Construct: made in house; host or cells: BL-21 plus RIL cells (E. coli)
# Sequence (Q99828 whole entry): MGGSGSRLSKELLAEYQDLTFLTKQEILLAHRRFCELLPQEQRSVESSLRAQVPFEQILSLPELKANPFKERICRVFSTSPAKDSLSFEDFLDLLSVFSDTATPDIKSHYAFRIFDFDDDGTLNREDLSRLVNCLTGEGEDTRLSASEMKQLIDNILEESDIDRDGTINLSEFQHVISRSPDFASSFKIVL
# protocol.details: FP assay, 1536-well qHTS format (primary and confirmatory screen)
# Type: binding
# condition.summary: qHTS primary screen of LOPAC/NPACT libraries; read-out: IC50
pIC50: −log10 of the molar value.
value.type: pIC50

compound | value.type | number
CO[C@@H](Cc1ccc(OCCc2nc(-c3ccccc3)oc2C)c2ccsc12)C(=O)O | pIC50 | 4.70
N[C@@H](CCC(=O)N[C@H](CSN=O)C(=O)NCC(=O)O)C(=O)O | pIC50 | 4.90
N=C(N)c1ccc2c(c1)N/C(=C1/C=C(CC(=O)NC(CC(=O)O)C(=O)O)C=C(c3cc(S(N)(=O)=O)ccc3O)C1=O)N2 (stereo not drawn) | pIC50 | 5.15
O=C1Cc2c([nH]c3ccc(Br)cc23)-c2ccccc2N1 | pIC50 | 4.70
Cc1cc2occ(CN(C)CCN(C)Cc3cn(-c4cccc(C(F)(F)F)c4)c4ccccc34)c(=O)c2cc1C.Cl | pIC50 | 4.10
CN(C)CC/C=C1/c2ccccc2Sc2cc(Cl)ccc21.Cl | pIC50 | 4.15

====

# target.entity: CIB1 and αIIb interaction (CIB1-GST : F-αIIb peptide) (Homo sapiens)
# Construct: made in house; host or cells: BL-21 plus RIL cells (E. coli)
# protocol.details: FP assay, 1536-well qHTS format (primary and confirmatory screen)
# Format: binding
# condition.summary: confirmatory screen; read-out: CONFIRMATORY SCREEN IC50
pIC50: −log10 of the molar value.

molecule | pIC50
O=C(O)C(F)(F)F.OCc1ccc(-c2ccc3ncnc(NCc4nccs4)c3c2)o1 [NCGC00238383-01] | 4.15
COc1cc(C(=O)NS(=O)(=O)c2ccccc2C)ccc1Cc1cn(C)c2ccc(NC(=O)OC3CCCC3)cc12 [NCGC00164547-06] | 4.85
O=C1C=CC(=O)N1c1cccc(Br)c1 [NCGC00373120-01] | 5.05
CCOC(=O)N1CCN([N+]([O-])=NOc2ccc([N+](=O)[O-])cc2[N+](=O)[O-])CC1 [NCGC00165815-03] | 5.20
Brc1c(Br)c(Br)c2[nH]nnc2c1Br [NCGC00092352-04, 4,5,6,7-tetrabromobenzotriazole, reference compound] | 5.55
CCc1oc2ccccc2c1C(=O)c1cc(I)c(O)c(I)c1 [NCGC00160408-03] | 4.95
COC(=O)c1ccc2c(c1)S(=O)(=O)N=C2Sc1cc(C)ccc1C [NCGC00238687-01] | 4.55
O=C(O)C(F)(F)F.O=C(O)c1ccc(-c2ccc3ncnc(NCc4nccs4)c3c2)o1 [NCGC00229620-01] | 4.35
O=C(O)C1=NC(C(=O)O)CC(/C=C/N2c3cc(O)c(OC4OC(CO)C(O)C(O)C4O)cc3CC2C(=O)O)=C1 (stereo not drawn) [NCGC00346734-01] | 4.30
COc1nn(CSP(=S)(OC)OC)c(=O)s1 [NCGC00163724-03] | 4.70
CCOC(=O)c1nnc(NS(=O)(=O)c2ccc(NC(=O)Cc3ccc(Cl)c(Cl)c3)cc2)s1.O=C(O)C(F)(F)F [NCGC00248354-01] | 4.80
Cc1cc(Nc2c(Nc3nnc(-c4ccncc4)s3)c(=O)c2=O)ccc1Cl.O=C(O)C(F)(F)F [NCGC00241510-01] | 4.95

====

# target.entity: GST-CIB1 : F-scrambled peptide (Homo sapiens)
# Construct: made in house; host or cells: BL-21 plus RIL cells (E. coli)
# Sequence (Q99828 whole entry): as above
# protocol.details: FP scrambled-peptide counter screen, 1536-well format
# Type: binding
# condition.summary: scrambled-peptide counterscreen, qHTS curve class
Measured COUNTERSCREEN Curve Class of individual entries
value.type: COUNTERSCREEN Curve Class

compound | target.entity | value.type | number
Cc1ccc(C)n1-c1cccc(C(=O)O)c1.O=C(O)C(F)(F)F | GST-CIB1 : F-scrambled peptide (Homo sapiens) | COUNTERSCREEN Curve Class | 4
CCC(OC(=O)c1ccc(S(C)(=O)=O)c([N+](=O)[O-])c1)C(=O)NC1C2CC3CC(C2)CC1C3 (centres unmarked) | GST-CIB1 : F-scrambled peptide (Homo sapiens) | COUNTERSCREEN Curve Class | -2.2
Cc1ccc(S(=O)(=O)Nc2nn3c(=O)c4ccccc4nc3s2)cc1C.O=C(O)C(F)(F)F | GST-CIB1 : F-scrambled peptide (Homo sapiens) | COUNTERSCREEN Curve Class | 4
N#Cc1cnc(NS(=O)(=O)c2ccc(NC(=O)Cc3ccc(Cl)c(Cl)c3)cc2)s1.O=C(O)C(F)(F)F | GST-CIB1 : F-scrambled peptide (Homo sapiens) | COUNTERSCREEN Curve Class | 4
COc1ccccc1C(=O)c1no[n+]([O-])c1C(=O)c1ccccc1OC.O=C(O)C(F)(F)F | GST-CIB1 : F-scrambled peptide (Homo sapiens) | COUNTERSCREEN Curve Class | 4
O=C1C=CC(=O)N1c1cccc(Br)c1 | GST-CIB1 : F-scrambled peptide (Homo sapiens) | COUNTERSCREEN Curve Class | 4
CCC(=O)NC(c1cccs1)c1cc([N+](=O)[O-])c2cccnc2c1O (centres unmarked) | GST-CIB1 : F-scrambled peptide (Homo sapiens) | COUNTERSCREEN Curve Class | 4
Cc1cc(Nc2c(Nc3nnc(-c4ccncc4)s3)c(=O)c2=O)ccc1Cl.O=C(O)C(F)(F)F | GST-CIB1 : F-scrambled peptide (Homo sapiens) | COUNTERSCREEN Curve Class | -2.2
Cc1ccc(S(=O)(=O)Nc2cnccc2C(=O)Nc2nc(-c3ccccc3)cs2)cc1.O=C(O)C(F)(F)F | GST-CIB1 : F-scrambled peptide (Homo sapiens) | COUNTERSCREEN Curve Class | -3
O=c1oc2ccccc2c(O)c1C(CC(O)c1ccc(-c2ccc(Br)cc2)cc1)c1ccccc1 (centres unmarked) | GST-CIB1 : F-scrambled peptide (Homo sapiens) | COUNTERSCREEN Curve Class | 3
COc1nn(CSP(=S)(OC)OC)c(=O)s1 | GST-CIB1 : F-scrambled peptide (Homo sapiens) | COUNTERSCREEN Curve Class | 4
Cc1ccc(-c2csc(NC(=O)c3ccncc3NS(=O)(=O)c3ccc(C)cc3)n2)cc1.O=C(O)C(F)(F)F | GST-CIB1 : F-scrambled peptide (Homo sapiens) | COUNTERSCREEN Curve Class | 4
CCOC(=O)N1CCN([N+]([O-])=NOc2ccc([N+](=O)[O-])cc2[N+](=O)[O-])CC1 | GST-CIB1 : F-scrambled peptide (Homo sapiens) | COUNTERSCREEN Curve Class | -2.2
Cc1ccc(S(=O)(=O)Nc2cnccc2C(=O)Nc2nc(-c3ccc4c(c3)CCCC4)cs2)cc1.O=C(O)C(F)(F)F | GST-CIB1 : F-scrambled peptide (Homo sapiens) | COUNTERSCREEN Curve Class | 4
Cc1ccc(S(=O)(=O)Nc2cnccc2C(=O)Nc2nc(-c3cccc(Cl)c3)cs2)cc1.O=C(O)C(F)(F)F | GST-CIB1 : F-scrambled peptide (Homo sapiens) | COUNTERSCREEN Curve Class | 4
COc1ccc(CNC(=O)c2nc(S(=O)(=O)Cc3ccccc3)ncc2Cl)cc1.O=C(O)C(F)(F)F | GST-CIB1 : F-scrambled peptide (Homo sapiens) | COUNTERSCREEN Curve Class | 4
CC[S+]([O-])c1nc(-c2cccc(OCc3ccccc3)c2)cc(C(F)(F)F)n1 (centres unmarked) | GST-CIB1 : F-scrambled peptide (Homo sapiens) | COUNTERSCREEN Curve Class | 4
O=C(O)C(F)(F)F.O=C(O)c1ccc(-c2ccc3ncnc(NCc4nccs4)c3c2)o1 | GST-CIB1 : F-scrambled peptide (Homo sapiens) | COUNTERSCREEN Curve Class | 4
CSC(Cc1ccc(Cl)cc1)C(=O)Nc1ccc(Cl)cc1C(=O)O.O=C(O)C(F)(F)F (centres unmarked) | GST-CIB1 : F-scrambled peptide (Homo sapiens) | COUNTERSCREEN Curve Class | 4
O=C(Nc1nc(-c2ccccc2)cs1)c1ccncc1NS(=O)(=O)c1ccc(Cl)cc1.O=C(O)C(F)(F)F | GST-CIB1 : F-scrambled peptide (Homo sapiens) | COUNTERSCREEN Curve Class | 4
